Each entry below carries its recorded Kd.
target: recombinant human GPVI (Homo sapiens); assay: Surface plasmon resonance binding assay (OpenSPR); conditions: his-tagged recombinant GPVI on NTA chip, compound at 0.1 and 1 μM; read-out: KD (equilibrium dissociation constant)
Sequence (Q9HCN6 21-267 limits assumed): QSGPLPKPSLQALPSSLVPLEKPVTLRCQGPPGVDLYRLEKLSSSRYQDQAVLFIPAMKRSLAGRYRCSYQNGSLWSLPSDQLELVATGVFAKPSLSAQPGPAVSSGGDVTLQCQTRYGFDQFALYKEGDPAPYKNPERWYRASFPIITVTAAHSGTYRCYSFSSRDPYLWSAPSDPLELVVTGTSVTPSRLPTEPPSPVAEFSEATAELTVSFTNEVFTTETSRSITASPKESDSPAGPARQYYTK
Reply with just the number (in nM).

Give Kd for the following compound: CN(C)CCN1C(=O)c2cccc3c(NCCNC(=O)c4ccccn4)ccc(c23)C1=O [compound 5] 300

Give Kd for the following compound: CCCCN1C(=O)c2cccc3c(NCCNC(=O)C45CC6CC(CC(C6)C4)C5)ccc(c23)C1=O [compound 6] 160

Reference source for all entries: paper PMC12234328
